Data provenance is ChEMBL document CHEMBL1765030.

test system: HCT-116; assay: Cytotoxicity against human HCT116 cells […] after 72 hrs by MTT assay; assay type: functional, cell-based; settings: HCT-116, 72 h
Assign IC50 to each entry below.
All answers are understood in µM, so give the number only.

Recorded IC50 (compound C#CC(=O)N(c1ccc(-n2cnnn2)c(C)c1)C(C(=O)NC1CCCC1)c1ccccc1 (stereo not given) ): 7.2

Recorded IC50 (compound C#CC(=O)N(c1ccccc1)C(C(=O)NC1CCCCC1)c1cccs1 (stereo not given) ): 14

Recorded IC50 (compound C#CC(=O)N(c1ccc(-n2cnnn2)c(C)c1)C(C(=O)NC1CCCC1)c1ccccc1F (stereo not given) ): 6.3

Recorded IC50 (compound C#CC(=O)N(c1ccccc1F)C(C(=O)NC1CCCCC1)c1ccccc1F (stereo not given) ): 11.9

###

tested on: HCT-116; assay: Cytotoxicity against human HCT116 cells […] after 72 hrs by MTT assay; assay type: functional, cell-based; settings: HCT-116, 72 h
Assign IC50 to each entry below.

C#CC(=O)N(Cc1ccc2c(c1)OCO2)C(C(=O)NCc1ccccc1)c1ccccc1F (stereo not drawn) tested on HCT-116 gave IC50: > 10 µM

C#CC(=O)N(c1cccc(C(F)(F)F)c1)C(C(=O)NC1CCCCC1)c1cccs1 (stereo not drawn) tested on HCT-116 gave IC50: 8.3 µM

C#CC(=O)N(c1cc(OC)cc(OC)c1)C(C(=O)NC1CCCC1)c1ccc(OC)cc1 (stereo not drawn) tested on HCT-116 gave IC50: 15 µM

###

tested on: HCT-116; test: Cytotoxicity against human HCT116 cells […] after 72 hrs by MTT assay; assay type: functional, cell-based; settings: HCT-116, 72 h
property_label: pIC50
Entry type: numeric. Quantity: pIC50, the -log10 of concentration in molar units.

Recorded pIC50 (molecule C#CC(=O)N(c1ccc2ccccc2c1)C(C(=O)NC1CCCC1)c1ccccc1 (stereo not given) ): 5.17

Recorded pIC50 (molecule C#CC(=O)N(c1cccc(C(F)(F)F)c1)C(C(=O)NCc1ccccc1)c1cccs1 (stereo not given) ): 5.05

Recorded pIC50 (molecule C#CC(=O)N(c1ccc(OC)cc1OC)C(C(=O)NC1CCCC1)c1cccs1 (stereo not given) ): 5.16

Recorded pIC50 (molecule C#CC(=O)N(Cc1ccco1)C(C(=O)NC1CCCC1)c1ccccc1F (stereo not given) ): 4.98

Recorded pIC50 (molecule C#CC(=O)N(c1ccc(OC)c(OC)c1)C(C(=O)NC1CCCC1)c1cccs1 (stereo not given) ): 5.11

Recorded pIC50 (molecule C#CC(=O)N(c1cccc(C(F)(F)F)c1)C(C(=O)NC1CCCC1)c1ccc(F)cc1 (stereo not given) ): 5.12

Recorded pIC50 (molecule C#CC(=O)N(c1cc(OC)cc(OC)c1)C(C(=O)NC1CCCCC1)c1ccc(OC)cc1 (stereo not given) ): 4.90

Recorded pIC50 (molecule C#CC(=O)N(c1ccc2c(c1)OCCO2)C(C(=O)NC1CCCC1)c1ccccc1 (stereo not given) ): 4.76

Recorded pIC50 (molecule C#CC(=O)N(c1cccc(OC)c1)C(C(=O)NC1CCCC1)c1cccs1 (stereo not given) ): 5.14

Recorded pIC50 (molecule C#CC(=O)N(c1cc(OC)ccc1OC)C(C(=O)NC1CCCC1)c1cccs1 (stereo not given) ): 5.24

###

Assign IC50 to each entry below.
test system: NCI/ADR-RES; assay: Cytotoxicity against human NCI/ADR-RES cells after 72 hrs by MTT assay; assay type: functional, cell-based
All answers are understood in µM, so give the number only.

Recorded IC50 (molecule C#CC(=O)N(c1cccc(C(F)(F)F)c1)C(C(=O)NCc1ccccc1)c1cccs1 (stereo not drawn) ): 0.7

Recorded IC50 (molecule C#CC(=O)N(c1cc(OC)cc(OC)c1)C(C(=O)NC1CCCCC1)c1ccc(OC)cc1 (stereo not drawn) ): 0.3

Recorded IC50 (molecule C#CC(=O)N(c1ccc2c(c1)OCCO2)C(C(=O)NC1CCCC1)c1ccccc1 (stereo not drawn) ): 0.3

Recorded IC50 (molecule C#CC(=O)N(c1cc(OC)cc(OC)c1)C(C(=O)NC1CCCC1)c1ccc(OC)cc1 (stereo not drawn) ): 0.3

Recorded IC50 (molecule C#CC(=O)N(c1cccc(C(F)(F)F)c1)C(C(=O)NC1CCCCC1)c1cccs1 (stereo not drawn) ): 0.4

Recorded IC50 (molecule C#CC(=O)N(Cc1ccco1)C(C(=O)NC1CCCC1)c1ccccc1F (stereo not drawn) ): 1.2

Recorded IC50 (molecule C#CC(=O)N(c1cccc(OC)c1)C(C(=O)NC1CCCC1)c1cccs1 (stereo not drawn) ): 0.3

Recorded IC50 (molecule C#CC(=O)N(c1cccc(C(F)(F)F)c1)C(C(=O)NC1CCCC1)c1cccc(OC)c1 (stereo not drawn) ): 0.2

Recorded IC50 (molecule C#CC(=O)N(c1ccc(-n2cnnn2)c(C)c1)C(C(=O)NC1CCCC1)c1ccccc1F (stereo not drawn) ): 1

Recorded IC50 (molecule C#CC(=O)N(c1ccccc1F)C(C(=O)NC1CCCCC1)c1ccccc1F (stereo not drawn) ): 0.4

Recorded IC50 (molecule C#CC(=O)N(c1ccccc1)C(C(=O)NC1CCCCC1)c1cccs1 (stereo not drawn) ): 1.3

Recorded IC50 (molecule C#CC(=O)N(c1cc(OC)ccc1OC)C(C(=O)NC1CCCC1)c1cccs1 (stereo not drawn) ): 0.3

Recorded IC50 (molecule C#CC(=O)N(c1cccc(C(F)(F)F)c1)C(C(=O)NC1CCCC1)c1ccc(F)cc1 (stereo not drawn) ): 0.4

Recorded IC50 (molecule C#CC(=O)N(c1ccc(OC)cc1OC)C(C(=O)NC1CCCC1)c1cccs1 (stereo not drawn) ): 0.4

Recorded IC50 (molecule C#CC(=O)N(c1ccc(-n2cnnn2)c(C)c1)C(C(=O)NC1CCCC1)c1ccccc1 (stereo not drawn) ): 1

Recorded IC50 (molecule C#CC(=O)N(Cc1ccc2c(c1)OCO2)C(C(=O)NCc1ccccc1)c1ccccc1F (stereo not drawn) ): 1.3

Recorded IC50 (molecule C#CC(=O)N(c1ccc(OC)c(OC)c1)C(C(=O)NC1CCCC1)c1cccs1 (stereo not drawn) ): 0.9

Recorded IC50 (molecule C#CC(=O)N(c1ccc2ccccc2c1)C(C(=O)NC1CCCC1)c1ccccc1 (stereo not drawn) ): 0.3

###

assay: Octanol-water distribution coefficient, log P of the compound; assay type: physicochemical
Assign logP to each entry below.
Enter a number only.

Recorded logP (compound C#CC(=O)N(c1cc(OC)cc(OC)c1)C(C(=O)NC1CCCC1)c1ccc(OC)cc1 (stereo not drawn) ): 2.33

Recorded logP (compound C#CC(=O)N(c1cccc(C(F)(F)F)c1)C(C(=O)NC1CCCC1)c1cccc(OC)c1 (stereo not drawn) ): 3.7

Recorded logP (compound C#CC(=O)N(c1ccc2ccccc2c1)C(C(=O)NC1CCCC1)c1ccccc1 (stereo not drawn) ): 4.11

Recorded logP (compound C#CC(=O)N(c1ccc2c(c1)OCCO2)C(C(=O)NC1CCCC1)c1ccccc1 (stereo not drawn) ): 2.62

Recorded logP (compound COc1cccc2c1C(=O)c1c(O)c3c(c(O)c1C2=O)C[C@@](O)(C(=O)CO)C[C@@H]3O[C@H]1C[C@H](N)[C@H](O)[C@H](C)O1 ): -0.82

Recorded logP (compound C#CC(=O)N(c1ccccc1F)C(C(=O)NC1CCCCC1)c1ccccc1F (stereo not drawn) ): 4.17

Recorded logP (compound C#CC(=O)N(Cc1ccc2c(c1)OCO2)C(C(=O)NCc1ccccc1)c1ccccc1F (stereo not drawn) ): 3.32

Recorded logP (compound C#CC(=O)N(c1ccccc1)C(C(=O)NC1CCCCC1)c1cccs1 (stereo not drawn) ): 3.07

Recorded logP (compound C#CC(=O)N(c1cc(OC)ccc1OC)C(C(=O)NC1CCCC1)c1cccs1 (stereo not drawn) ): 2.26

Recorded logP (compound CC(=O)O[C@H]1C(=O)[C@@]2(C)[C@H]([C@H](OC(=O)c3ccccc3)[C@]3(O)C[C@H](OC(=O)[C@H](O)[C@@H](NC(=O)c4ccccc4)c4ccccc4)C(C)=C1C3(C)C)[C@]1(OC(C)=O)CO[C@@H]1C[C@@H]2O ): 0.54

Recorded logP (compound CC[C@@]1(O)C(=O)OCc2c1cc1n(c2=O)Cc2cc3ccccc3nc2-1 ): 1.67

Recorded logP (compound C#CC(=O)N(c1cccc(OC)c1)C(C(=O)NC1CCCC1)c1cccs1 (stereo not drawn) ): 2.55

Recorded logP (compound C#CC(=O)N(c1ccc(OC)cc1OC)C(C(=O)NC1CCCC1)c1cccs1 (stereo not drawn) ): 2.26

Recorded logP (compound C#CC(=O)N(c1cc(OC)cc(OC)c1)C(C(=O)NC1CCCCC1)c1ccc(OC)cc1 (stereo not drawn) ): 2.54

Recorded logP (compound C#CC(=O)N(c1cccc(C(F)(F)F)c1)C(C(=O)NC1CCCC1)c1ccc(F)cc1 (stereo not drawn) ): 4.38

Recorded logP (compound C#CC(=O)N(c1cccc(C(F)(F)F)c1)C(C(=O)NCc1ccccc1)c1cccs1 (stereo not drawn) ): 3.86

Recorded logP (compound C#CC(=O)N(Cc1ccco1)C(C(=O)NC1CCCC1)c1ccccc1F (stereo not drawn) ): 2.39

Recorded logP (compound C#CC(=O)N(c1ccc(OC)c(OC)c1)C(C(=O)NC1CCCC1)c1cccs1 (stereo not drawn) ): 2.26
